test: Inhibition of PHK phosphorylase kinase
pIC50: −log10 of the molar value.
Result Type: pIC50

>>> result("CCN(CC)C/C=C/c1nc(O)c2c(ccc3nc(Nc4c(Cl)cccc4Cl)n(C)c32)c1C")
"< 6.00"

* * *

molecular target: UniProt P06213
Sequence (P06213 28-758 limits assumed): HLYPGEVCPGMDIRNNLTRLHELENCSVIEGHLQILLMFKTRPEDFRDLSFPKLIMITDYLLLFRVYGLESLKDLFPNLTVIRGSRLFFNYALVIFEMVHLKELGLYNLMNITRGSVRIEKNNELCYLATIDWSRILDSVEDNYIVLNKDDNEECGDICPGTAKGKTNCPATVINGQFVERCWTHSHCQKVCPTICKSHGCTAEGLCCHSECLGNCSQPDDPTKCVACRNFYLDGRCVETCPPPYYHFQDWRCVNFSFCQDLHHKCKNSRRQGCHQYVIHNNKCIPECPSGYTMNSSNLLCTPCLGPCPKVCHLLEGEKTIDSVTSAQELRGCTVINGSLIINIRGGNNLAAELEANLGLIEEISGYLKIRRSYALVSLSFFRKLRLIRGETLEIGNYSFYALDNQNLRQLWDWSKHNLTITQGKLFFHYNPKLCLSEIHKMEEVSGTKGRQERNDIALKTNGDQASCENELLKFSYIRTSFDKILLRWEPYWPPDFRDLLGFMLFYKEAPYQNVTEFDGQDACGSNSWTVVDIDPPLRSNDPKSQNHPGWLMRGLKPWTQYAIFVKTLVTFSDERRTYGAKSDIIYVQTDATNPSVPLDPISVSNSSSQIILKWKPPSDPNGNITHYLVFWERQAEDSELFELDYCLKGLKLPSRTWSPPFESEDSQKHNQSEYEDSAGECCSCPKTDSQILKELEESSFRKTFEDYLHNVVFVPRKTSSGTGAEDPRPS
Sequence (P06213 763-1382 limits assumed): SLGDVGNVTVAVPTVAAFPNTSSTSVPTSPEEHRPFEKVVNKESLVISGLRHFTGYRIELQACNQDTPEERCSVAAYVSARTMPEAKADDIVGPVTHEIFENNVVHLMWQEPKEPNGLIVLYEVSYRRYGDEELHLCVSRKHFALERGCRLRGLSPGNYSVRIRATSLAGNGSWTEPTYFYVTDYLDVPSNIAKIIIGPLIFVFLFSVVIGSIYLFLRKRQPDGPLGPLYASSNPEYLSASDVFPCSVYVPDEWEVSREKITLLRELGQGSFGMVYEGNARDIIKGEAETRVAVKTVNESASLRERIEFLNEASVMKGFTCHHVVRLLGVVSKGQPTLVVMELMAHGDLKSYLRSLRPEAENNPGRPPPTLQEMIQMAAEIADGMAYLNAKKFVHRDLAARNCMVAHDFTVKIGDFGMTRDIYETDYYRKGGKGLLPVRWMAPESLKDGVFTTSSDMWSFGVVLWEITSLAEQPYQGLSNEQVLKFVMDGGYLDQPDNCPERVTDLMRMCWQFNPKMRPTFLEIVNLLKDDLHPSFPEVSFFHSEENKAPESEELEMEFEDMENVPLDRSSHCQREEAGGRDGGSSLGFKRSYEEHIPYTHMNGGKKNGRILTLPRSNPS
Result Type: IC50

>>> result("CCN(CC)C/C=C/c1nc(O)c2c(ccc3nc(Nc4c(Cl)cccc4Cl)n(C)c32)c1C")
"> 100 µM"

* * *

biological target: Casein kinase II (Homo sapiens, UniProt P19784+P67870+P68400); assay: Inhibition of Casein kinase II
Sequence (P67870 whole entry): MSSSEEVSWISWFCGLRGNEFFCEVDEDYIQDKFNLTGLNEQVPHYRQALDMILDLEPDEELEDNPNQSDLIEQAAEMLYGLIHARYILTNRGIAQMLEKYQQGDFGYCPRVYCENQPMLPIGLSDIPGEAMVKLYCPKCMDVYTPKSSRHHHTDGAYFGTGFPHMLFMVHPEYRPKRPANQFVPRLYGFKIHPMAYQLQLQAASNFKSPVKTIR
Sequence (P68400 whole entry): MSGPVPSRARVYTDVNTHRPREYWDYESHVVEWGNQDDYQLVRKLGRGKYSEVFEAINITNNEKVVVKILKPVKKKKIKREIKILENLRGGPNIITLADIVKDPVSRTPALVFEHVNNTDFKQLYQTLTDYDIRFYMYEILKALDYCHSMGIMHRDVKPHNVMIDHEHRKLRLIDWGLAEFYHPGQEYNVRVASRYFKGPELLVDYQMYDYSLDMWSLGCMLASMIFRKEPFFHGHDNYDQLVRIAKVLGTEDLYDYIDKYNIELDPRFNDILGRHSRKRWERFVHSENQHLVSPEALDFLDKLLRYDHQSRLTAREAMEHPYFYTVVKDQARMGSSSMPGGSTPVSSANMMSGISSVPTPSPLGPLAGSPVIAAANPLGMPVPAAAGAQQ
Sequence (P19784 whole entry): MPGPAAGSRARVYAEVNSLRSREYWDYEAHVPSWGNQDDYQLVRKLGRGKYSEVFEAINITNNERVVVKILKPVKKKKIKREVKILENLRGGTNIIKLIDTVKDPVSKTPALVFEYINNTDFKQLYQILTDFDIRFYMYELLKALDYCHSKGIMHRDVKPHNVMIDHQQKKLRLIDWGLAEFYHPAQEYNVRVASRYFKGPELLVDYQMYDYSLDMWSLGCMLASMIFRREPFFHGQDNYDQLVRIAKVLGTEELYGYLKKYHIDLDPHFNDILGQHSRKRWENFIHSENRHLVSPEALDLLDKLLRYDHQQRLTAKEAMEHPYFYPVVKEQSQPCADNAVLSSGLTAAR
Result Type: IC50

>>> result("CCN(CC)C/C=C/c1nc(O)c2c(ccc3nc(Nc4c(Cl)cccc4Cl)n(C)c32)c1C")
"> 1000 nM"
